# Tested on: human lung tumor cells
# Assay method text: Growth assay (Cell Titer Glo), lung tumor cell panel
# Assay type: cell-based
# Settings: Homo sapiens, 72 h, read-out: Growth inhibition IC50 values, range over human lung tumor cells
pIC50: −log10 of the molar value.
Measured metric: pIC50

What does the data say about its pIC50? Entry: COc1cc2ncnc(N3CC[C@@H](Oc4cnc5ccccc5n4)C3)c2cc1OC
5.77 to 6.49

* * *

# Target of assay: PDE2A (Homo sapiens, UniProt O00408)
# Sequence (O00408 whole entry): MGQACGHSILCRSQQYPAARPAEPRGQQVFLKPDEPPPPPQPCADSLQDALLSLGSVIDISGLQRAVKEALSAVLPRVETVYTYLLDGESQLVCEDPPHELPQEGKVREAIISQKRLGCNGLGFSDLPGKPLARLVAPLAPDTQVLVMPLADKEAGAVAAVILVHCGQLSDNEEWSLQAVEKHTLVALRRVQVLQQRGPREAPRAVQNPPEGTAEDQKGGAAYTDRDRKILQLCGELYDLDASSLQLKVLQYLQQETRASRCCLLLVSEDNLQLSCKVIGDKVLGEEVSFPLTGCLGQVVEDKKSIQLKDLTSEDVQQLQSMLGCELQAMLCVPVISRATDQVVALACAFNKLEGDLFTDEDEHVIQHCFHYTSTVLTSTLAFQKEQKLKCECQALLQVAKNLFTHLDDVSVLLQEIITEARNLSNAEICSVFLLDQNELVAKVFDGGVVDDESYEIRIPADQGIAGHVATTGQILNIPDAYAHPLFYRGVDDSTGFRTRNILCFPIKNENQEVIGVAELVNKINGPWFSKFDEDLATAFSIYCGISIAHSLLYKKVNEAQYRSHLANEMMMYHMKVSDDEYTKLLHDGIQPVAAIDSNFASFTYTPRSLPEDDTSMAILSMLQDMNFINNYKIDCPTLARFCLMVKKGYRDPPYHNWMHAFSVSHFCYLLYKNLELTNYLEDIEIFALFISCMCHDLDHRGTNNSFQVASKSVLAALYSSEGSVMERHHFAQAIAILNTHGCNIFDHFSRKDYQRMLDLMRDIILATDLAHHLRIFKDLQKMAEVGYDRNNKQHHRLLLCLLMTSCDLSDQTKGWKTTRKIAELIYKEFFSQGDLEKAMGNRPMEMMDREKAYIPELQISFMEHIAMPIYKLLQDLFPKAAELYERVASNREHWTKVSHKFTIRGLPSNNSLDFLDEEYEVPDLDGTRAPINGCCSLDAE
# Assay method text: IMAP fluorescence polarization PDE assay, recombinant PDE isozymes
# Type: biochemical
# Settings: substrate cGMP; read-out: IC50 of PQ10 cGMP
Measured metric: IC50 (µM)
Report only the number, with the unit µM understood.

What does the data say about its IC50? Entry: COc1cc2ncnc(N3CC[C@@H](Oc4cnc5ccccc5n4)C3)c2cc1OC
3.7

* * *

Recorded measurements of IC50, one per entry
# System: H460 cells
# Assay method text: Growth assay (Cell Titer Glo)
# Type: cell-based
# Settings: Homo sapiens, NCI-H460; H460, 72 hours, 5% serum; read-out: Growth inhibition IC50
The reply should read as a number followed by its unit.

1. Cn1cc(-c2ccncc2)c(-c2ccc(OCc3ccc4ccccc4n3)cc2)n1 :: 15.2 µM

What does the data say about its IC50? Entry: COc1ccc(Cc2nccc3cc(OC)c(OC)cc23)cc1OC
16.3 µM

What does the data say about its IC50? Entry: COc1cc2ncnc(N3CC[C@@H](Oc4cnc5ccccc5n4)C3)c2cc1OC
0.32 µM

* * *

# Target of assay: PDE10A (Homo sapiens)
# Sequence (Q9Y233 718-1035 limits assumed): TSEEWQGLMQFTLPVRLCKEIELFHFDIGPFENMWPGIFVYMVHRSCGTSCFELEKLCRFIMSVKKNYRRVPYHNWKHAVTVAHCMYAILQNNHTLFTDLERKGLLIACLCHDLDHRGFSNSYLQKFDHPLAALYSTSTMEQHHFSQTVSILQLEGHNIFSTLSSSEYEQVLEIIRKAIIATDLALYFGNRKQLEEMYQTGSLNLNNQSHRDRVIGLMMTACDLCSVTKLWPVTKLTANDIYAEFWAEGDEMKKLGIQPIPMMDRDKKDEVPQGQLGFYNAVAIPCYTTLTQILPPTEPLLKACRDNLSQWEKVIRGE
# Assay method text: IMAP fluorescence polarization PDE assay, recombinant PDE isozymes
# Format: biochemical
# Settings: substrate cGMP; read-out: IC50 of PQ10 cGMP
# Description: The enzymatic activity of recombinant PDE or PDE activities in cell lysates were measured using the IMAP fluorescence polarization (FP) PDE assay (Molecular Devices) as previously described. PDE10 inhibitors and DMSO as the vehicle were added to assay buffer 10 minutes before the incubation with the enzyme reaction. Fluorescence polarization values were measured using Synergy H4 Hybrid Reader (BioTek).
Measured metric: IC50 (nM)
Report only the number, with the unit nM understood.

What does the data say about its IC50? Entry: COc1cc2ncnc(N3CC[C@@H](Oc4cnc5ccccc5n4)C3)c2cc1OC
5

* * *

# Target of assay: PDE4B (Homo sapiens, UniProt Q07343)
# Sequence (Q07343 whole entry): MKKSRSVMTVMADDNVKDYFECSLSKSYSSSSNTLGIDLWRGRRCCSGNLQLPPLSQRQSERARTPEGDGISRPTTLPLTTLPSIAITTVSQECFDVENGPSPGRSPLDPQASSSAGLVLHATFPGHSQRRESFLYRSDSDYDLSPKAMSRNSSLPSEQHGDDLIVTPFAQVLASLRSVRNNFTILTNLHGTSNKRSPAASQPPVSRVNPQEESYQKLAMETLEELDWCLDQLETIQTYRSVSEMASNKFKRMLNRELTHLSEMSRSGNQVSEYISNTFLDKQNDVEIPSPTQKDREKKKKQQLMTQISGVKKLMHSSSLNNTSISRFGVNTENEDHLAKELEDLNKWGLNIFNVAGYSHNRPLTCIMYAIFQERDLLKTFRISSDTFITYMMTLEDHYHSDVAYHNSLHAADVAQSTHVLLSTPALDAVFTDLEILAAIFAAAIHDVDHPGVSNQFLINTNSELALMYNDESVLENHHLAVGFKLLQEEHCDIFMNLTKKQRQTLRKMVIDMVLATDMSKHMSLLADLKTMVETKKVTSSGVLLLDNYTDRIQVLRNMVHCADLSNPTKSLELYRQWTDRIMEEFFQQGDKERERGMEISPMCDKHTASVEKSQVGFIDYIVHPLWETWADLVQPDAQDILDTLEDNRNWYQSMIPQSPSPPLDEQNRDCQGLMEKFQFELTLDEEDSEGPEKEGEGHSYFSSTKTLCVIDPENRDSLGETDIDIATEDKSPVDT
# Assay method text: IMAP fluorescence polarization PDE assay, recombinant PDE isozymes
# Settings: substrate cAMP; read-out: IC50 of PQ10 cAMP
# Experimental: The enzymatic activity of recombinant PDE or PDE activities in cell lysates were measured using the IMAP fluorescence polarization (FP) PDE assay (Molecular Devices) as previously described. PDE10 inhibitors and DMSO as the vehicle were added to assay buffer 10 minutes before the incubation with the enzyme reaction. Fluorescence polarization values were measured using Synergy H4 Hybrid Reader (BioTek).
Measured metric: IC50 (µM)
Report only the number, with the unit µM understood.

What does the data say about its IC50? Entry: COc1cc2ncnc(N3CC[C@@H](Oc4cnc5ccccc5n4)C3)c2cc1OC
17.8

* * *

# Test system: HOP62 cells (shCTL vector control)
# Assay method text: Colony formation assay
# Assay type: cell-based, human
# Settings: Homo sapiens, HOP-62, 336 h; HOP62 shCTL, 14 days of treatment
# Procedure: The transient knockdown of PDE10 in NSCLC cells by PDE10-specific siRNA and scramble siRNA control was performed using RNAiMAX reagent (Invitrogen) as previously described. Effects of siRNA on NSCLC cell growth and PDE10 expression levels were measured after 72 hours of treatment. For a stable knockdown of PDE10, GIPZ lentiviral short hairpin RNA (shRNA) vectors targeting human PDE10, nonsilencing GPIZ lentiviral control vector, and transduction kit were purchased from Open Biosystems. […]
Measured metric: pIC50
Units for pIC50: none; it is -log10 of a concentration expressed in mol/L.

What does the data say about its pIC50? Entry: COc1cc2ncnc(N3CC[C@@H](Oc4cnc5ccccc5n4)C3)c2cc1OC
7.01
